Dear all, this message contains Ki results, target or system serotonin receptor 5-HT2 (Sus scrofa, UniProt P50129).
Field format: number, assumed nM, no unit text.

N#Cc1ccc2sc(C(=O)NCCCCN3CCN(c4cccc(Cl)c4Cl)CC3)cc2c1 yielded Ki of 280

O=C(NCCCCN1CCN(c2cccc(Cl)c2Cl)CC1)c1cc2cc(Br)ccc2o1 yielded Ki of 540

O=C(NCCCCN1CCN(c2cccc(Cl)c2Cl)CC1)c1cc2cc(Br)ccc2s1 yielded Ki of 14000

O=C(NCCCCN1CCN(c2cccc(Cl)c2Cl)CC1)c1cc2cc(Br)ccc2[nH]1 yielded Ki of 690

COc1ccccc1N1CCN(CCCCNC(=O)c2cc3cc(C#N)ccc3[nH]2)CC1 yielded Ki of 440

COc1ccccc1N1CCN(CCCCNC(=O)c2cc3cc(C#N)ccc3s2)CC1 yielded Ki of 580

COc1ccccc1N1CCN(CCCCNC(=O)c2cc3cc(Br)ccc3s2)CC1 yielded Ki of 760

COc1ccccc1N1CCN(CCCCNC(=O)c2cc3ccccc3[te]2)CC1 yielded Ki of 420

N#Cc1ccc2cc(C(=O)NCCCCN3CCN(c4cccc(Cl)c4Cl)CC3)sc2c1 yielded Ki of 290
